From: the supplement of paper PMC6757056

Parameter: FACS-Seq fitted mean (log10). Scope: all listed entries.
B1: library; a variant is named by its letters at N, in order (parent)
chain: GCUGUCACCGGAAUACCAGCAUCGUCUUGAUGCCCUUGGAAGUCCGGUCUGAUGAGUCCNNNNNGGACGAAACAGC

variants of: B1; experiment: FACS-Seq fitted mean relative fluorescence mCherry/BFP with ligand (log10 relative fluorescence); ligand concentration (+) FACS-Seq: 1 mM; higher = higher reporter protein expression; settings: HEK293T, ligand present: yes

{"variant-identifier": "AUAGU", "FACS-Seq fitted mean (log10)": 0.179}
{"variant-identifier": "CUGAA", "FACS-Seq fitted mean (log10)": 0.763}
{"variant-identifier": "AAAUG", "FACS-Seq fitted mean (log10)": 0.607}
{"variant-identifier": "AGUCA", "FACS-Seq fitted mean (log10)": 0.766}
{"variant-identifier": "AUAGG", "FACS-Seq fitted mean (log10)": 0.441}
{"variant-identifier": "ACAUG", "FACS-Seq fitted mean (log10)": 1.01}
{"variant-identifier": "UCUCC", "FACS-Seq fitted mean (log10)": 0.786}
{"variant-identifier": "UUACG", "FACS-Seq fitted mean (log10)": 1.02}
{"variant-identifier": "UAAAG", "FACS-Seq fitted mean (log10)": 0.497}
{"variant-identifier": "UAACC", "FACS-Seq fitted mean (log10)": 0.702}
{"variant-identifier": "CCCCA", "FACS-Seq fitted mean (log10)": 0.52}
{"variant-identifier": "AUGUU", "FACS-Seq fitted mean (log10)": 0.83}
{"variant-identifier": "CUAGA", "FACS-Seq fitted mean (log10)": 0.981}
{"variant-identifier": "CAAGA", "FACS-Seq fitted mean (log10)": 0.373}
{"variant-identifier": "UCCAG", "FACS-Seq fitted mean (log10)": 1.07}
{"variant-identifier": "AUUAU", "FACS-Seq fitted mean (log10)": 0.861}
